These data points were gathered from patent US11041000B2.

# method: Stability in human fecal homogenate
# Format: in vitro ADME
# measurement_setup: 20% fecal homogenate (supernatant), pH 6.8, 20% human fecal homogenate, anaerobic, 37° C., read-out: t½: Human Feces anaerobic (converted)
Bridge positions count the residues as written; N and C are the ends. Square brackets hold non-standard residues; d marks the D form. Peptide text beside a SMILES is read from it. Trp(7-Me) = Cc1cccc2c(C[C@H](N)C(=O)O)c[nH]c12; 2Nal = N[C@@H](Cc1ccc2ccccc2c1)C(=O)O; AEF = NCCOc1ccc(C[C@H](N)C(=O)O)cc1; Pen = CC(C)(S)[C@H](N)C(=O)O; hLeu = CC(C)CC[C@H](N)C(=O)O; αMeK = C[C@](N)(CCCCN)C(=O)O
readout_type: half-life at 20 μM

1) CC(=O)NCCCC[C@H](NC(=O)[C@](C)(CCCCN)NC(=O)[C@H](Cc1ccc2ccccc2c1)NC(=O)[C@H](Cc1ccc(OCCN)cc1)NC(=O)[C@H]1NC(=O)[C@H](CCC(N)=O)NC(=O)[C@H](Cc2c[nH]c3ccc(C#N)cc23)NC(=O)[C@H]([C@@H](C)O)NC(=O)[C@H](CC(N)=O)NC(=O)[C@@H](NC(C)=O)C(C)(C)SSC1(C)C)C(=O)N[C@@H](CC(N)=O)C(=O)N[C@H](CCCCN)C(N)=O [compound 296] :: > 24 h
2) CC(=O)NCCCC[C@@H]1NC(=O)[C@H](Cc2c[nH]c3c(C)cccc23)NC(=O)[C@H]([C@@H](C)O)NC(=O)[C@H](CCC(C)C)NC(=O)[C@@H](NC(C)=O)C(C)(C)SSC(C)(C)[C@@H](C(=O)N[C@@H](Cc2ccc(OCCN)cc2)C(=O)N[C@@H](Cc2ccc3ccccc3c2)C(=O)N[C@@](C)(CCCCN)C(=O)N[C@@H](CCCCNC(C)=O)C(=O)N[C@@H](CC(N)=O)C(=O)N[C@H](CC(C)C)C(N)=O)NC1=O [compound 337] (Ac-[Pen][hLeu]T[Trp(7-Me)]K(Ac)[Pen][AEF][2Nal][αMeK]K(Ac)N[dL]-NH2; disulfide 1-6) :: > 24 h
